Biological target: AdpAlin (Streptomyces lincolnensis NRRL 2936) (UniProt A0A1B1M9Y0)
Sequence: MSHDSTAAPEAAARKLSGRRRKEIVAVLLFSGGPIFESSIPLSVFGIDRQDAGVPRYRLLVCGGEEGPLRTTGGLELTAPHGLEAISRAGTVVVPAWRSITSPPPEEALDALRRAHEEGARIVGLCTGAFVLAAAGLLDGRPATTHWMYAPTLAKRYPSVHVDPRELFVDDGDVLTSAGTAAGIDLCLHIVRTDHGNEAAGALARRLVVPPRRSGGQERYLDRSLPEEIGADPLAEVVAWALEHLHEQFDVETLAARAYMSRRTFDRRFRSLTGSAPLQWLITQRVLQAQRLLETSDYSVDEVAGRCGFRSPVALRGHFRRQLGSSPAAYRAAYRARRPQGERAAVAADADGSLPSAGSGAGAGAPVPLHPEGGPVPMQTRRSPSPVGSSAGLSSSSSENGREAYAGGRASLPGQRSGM
Assay: EMSA
Conditions: EMSA: 20 mM Tris-HCl pH 7.5, 5% glycerol, 0.1% BSA; 2.5 nM 5'-biotin probe; AdpAlin 0-6.4 uM (12.8 uM for probe-neg); 200-fold unlabeled competitor; salt and …

Input sequence: AGCCAGTGACGATAAGGGCCACACGTCGTAGACATCTGCGATCTTGTCACCGTAGAGCTTCGCGAAATCATGGTCGGACATTGAATTCTCTTTCCTCACCAGGACGTTGGCCACTCGGCGAGCGGCCGCAGGGAGACGGTGGCATGGGACGCGAGGGACAGTCGACACGGCAGCCGGTACCGGCGGTGTTCTTCGACCGGGACGGCGCTTATCGTCACTGGCT (double strand) [lmbJp-A]
binding: binds
//
Input sequence: AGCCAGTGACGATAAGCGAGACAAGCAATCGGCTTCACGCCCTGTCAAGCGGCAGCAGACGGCTTCCCGTAATTCCTGGAAGTTATCCGGGAGTCGGCGCGAACGTGCCGCCACGGCCCTCGATATCCGGTGCATTACCTGGGAATAGGGAATAGGGAACCGGTAATCCGCGGTCGGGGCAAGCGTCTGGGTGCGTGGACTTATCGTCACTGGCT (double strand) [lmbAp-A]
binding: binds
//
Input sequence: AGCCAGTGACGATAAGTCTACTGTGTCGCGTGATGCCGGAGTGACCAGTTCGTCATCCGGCAGATTGTCGACTTGGCAACTTGGCGTGAAGCATTCGATCACGAAGCGTTGCACTCGTGGGGCGTGCAGGGAAGTGCGCCTTGTCGCAGTGGCCAATCCACGTAGGGTGCGCTTATCGTCACTGGCT (double strand) [adpAp-A]
binding: binds
//
Input sequence: AGCCAGTGACGATAAGCGACCACCTGGGTCTCGCCCTGACCGTAGATCTTCGACAGATCCGTGGCACGCGCCGCCACTGCGGTGGTCCGGCCGACGATGGGTGTGGTGGTCACGAGAGGGCACTCCTGGGAACGACGACTGGGGGAATACCTCCATCGTCGCCGCCGCGGAGCGCCGTGTAGTCAGCCGCTGTTCCCTTATCGTCACTGGCT (double strand) [bldAp-N]
binding: no binding
//
Input sequence: AGCCAGTGACGATAAGTCGGACGAGGACGACGACAACCCCGCGGACGACCCGACAGGACTCGGCGAACGCCGCGTCTGCATCGGCACCGGCCCGCCCTCCGGATGCAGCGGAACCGGCGCACCGGCACCCGCCCCCGATCCGGCGGACGGCAAGGACCCGTCAGCGTCCTTATCGTCACTGGCT (double strand) [probe-neg]
binding: no binding
//
Input sequence: AGCCAGTGACGATAAGTGATCCGTACTTGATACATTGGCCGTTACATGTATCGGAGTTCCGAGGGGGGGCAATGATGCTGGTTCCGCCAAGCCATTCATGAGCTGCTCGCCTGCGCCGCCCTTCGTGGCGGTGGCGCGACATCGATGAGCGTGGTGGGCGCCGAACAACGGGGGTGAATCGCTGCTTCTTATCGTCACTGGCT (double strand) [lmbUp-A]
binding: binds
//
Input sequence: AGCCAGTGACGATAAGCGTGTCTGCATTCCACCATCCGGGCAGGCCATGGGCTCCGCATCGAGGTTCCCGAGCCTATCGGGACGCCTCCCCCCAACAGGGGTCGGGTGGCCCGATGTTGTCTTATTTTATTGAGTTCTGAGGGAGCCTTATCGTCACTGGCT (double strand) [bldAp-A]
binding: binds
